- Measurement description: Metabolic stability, Phase I microsome reactions
- Type: in vitro ADME, mouse
- Experimental parameters: mouse, liver microsomes, pH 7.4, Phase I only, 1.0 mg/ml microsomes, read-out: Mouse LM-P1 Half-life
Measurement name: half-life at 0.5 μM (min)
Please state the figure in min; there is no need to write the unit.

Study these solved cases before continuing.
CC(Cc1cc(F)ccc1F)Nc1cc[nH]c(=O)c1-c1nc2cc3c(cc2[nH]1)C(=O)N(CCN(C)C)C3 (racemic): 23.6
C[C@@H](Cc1cc(F)cc(F)c1F)Nc1cc[nH]c(=O)c1-c1nc2cc3c(cc2[nH]1)CN(CCN(C)C)C3=O: 29

The compound C[C@@H](Cc1c(F)c(F)cc(F)c1F)Nc1cc[nH]c(=O)c1-c1nc2cc3c(cc2[nH]1)C(O)N(c1cccnc1)C3=O (stereo partly drawn) showed half-life at 0.5 μM equal to 87.8

---

- Target system: TrkB (Homo sapiens (Human), UniProt Q16620)
- Sequence (Q16620 32-822): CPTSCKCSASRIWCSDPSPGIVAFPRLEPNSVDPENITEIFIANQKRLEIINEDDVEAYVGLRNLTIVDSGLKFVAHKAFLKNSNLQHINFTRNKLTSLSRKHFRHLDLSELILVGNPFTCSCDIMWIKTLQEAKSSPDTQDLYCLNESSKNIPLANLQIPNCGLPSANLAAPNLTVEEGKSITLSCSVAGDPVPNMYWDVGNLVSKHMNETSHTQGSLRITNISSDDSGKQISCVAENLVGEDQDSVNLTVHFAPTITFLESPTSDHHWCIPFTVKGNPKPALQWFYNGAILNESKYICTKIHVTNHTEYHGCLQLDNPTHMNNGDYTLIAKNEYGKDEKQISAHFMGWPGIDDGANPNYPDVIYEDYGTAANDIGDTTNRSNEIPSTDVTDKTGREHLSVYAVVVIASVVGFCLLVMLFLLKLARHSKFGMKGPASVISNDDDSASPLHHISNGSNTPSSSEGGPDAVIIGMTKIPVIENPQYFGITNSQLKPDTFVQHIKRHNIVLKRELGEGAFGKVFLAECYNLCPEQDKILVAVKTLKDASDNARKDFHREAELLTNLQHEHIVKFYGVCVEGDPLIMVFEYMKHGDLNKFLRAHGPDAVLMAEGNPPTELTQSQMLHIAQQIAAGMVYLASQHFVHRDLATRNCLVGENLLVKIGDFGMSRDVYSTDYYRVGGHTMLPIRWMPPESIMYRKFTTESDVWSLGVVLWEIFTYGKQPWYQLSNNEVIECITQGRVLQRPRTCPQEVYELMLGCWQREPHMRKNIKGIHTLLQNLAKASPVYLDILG
- Measurement description: In vitro kinase activity assay (LANCE TR-FRET)
- Format: biochemical
- Experimental parameters: read-out: TrkB (nM) IC50
Measurement name: IC50 (nM)
Please state the figure in nM; there is no need to write the unit.

The molecule C[C@@H](Cc1c(F)c(F)cc(F)c1F)Nc1cc[nH]c(=O)c1-c1nc2cc3c(cc2[nH]1)CN(CCN(C)C)C3=O showed IC50 equal to 2.06

---

- Measurement description: Dog pharmacokinetics
- Experimental parameters: plasma, po, 5 mg/kg
Measurement name: AUC (ng·h/mL)
Please state the figure in ng·h/mL; there is no need to write the unit.

The compound C[C@@H](Cc1c(F)c(F)cc(F)c1F)Nc1cc[nH]c(=O)c1-c1nc2cc3c(cc2[nH]1)CN(CCN(C)C)C3=O [Compound 1] showed AUC equal to 287

---

- Tested on: Caco-2 cells
- Measurement description: Caco-2 cell permeation study
- Format: in vitro ADME
- Experimental parameters: 10 μM, basolateral pH 7.4, 2 h
Measured Papp (10−6 cm/sec) B to A values are reported for all entries that follow.

The compound CC(Cc1cc(F)ccc1F)Nc1cc[nH]c(=O)c1-c1nc2cc3c(cc2[nH]1)CN(C)C3=O (centres unmarked) showed Papp (10−6 cm/sec) B to A equal to 1.4 10−6 cm/sec

The compound C[C@@H](Cc1cc(F)ccc1F)Nc1cc[nH]c(=O)c1-c1nc2cc3c(cc2[nH]1)C(=O)N(C)C3=O showed Papp (10−6 cm/sec) B to A equal to 0.1 10−6 cm/sec

The compound CC(Cc1cc(F)ccc1F)Nc1cc[nH]c(=O)c1-c1nc2cc3c(cc2[nH]1)CNC3=O (centres unmarked) showed Papp (10−6 cm/sec) B to A equal to 7.41 10−6 cm/sec

The compound CC(Oc1cc(-c2cnn(C3CCNCC3)c2)cnc1N)c1c(Cl)ccc(F)c1Cl (racemic) [PF2341066, crizotinib, reference compound] showed Papp (10−6 cm/sec) B to A equal to 50.7 10−6 cm/sec

The compound CC(Cc1cc(F)ccc1F)Nc1cc[nH]c(=O)c1-c1nc2cc3c(cc2[nH]1)C(=O)N(CC(O)CO)C3=O (centres unmarked) showed Papp (10−6 cm/sec) B to A equal to 1.17 10−6 cm/sec

---

- Measurement description: Caco-2 cell permeation study;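 note: Caco-2 monolayers grown for 21–28 days with integrity confirmed by TEER, apical buffer HBSS with MES, basolateral buffer HBSS with HEPES, compound levels quantified by LC/MS/MS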
- Type: in vitro ADME
- Experimental parameters: human, Caco-2, pH 7.4, 10 μM, basolateral pH 7.4, 2 h
Measured Papp B→A at 2 h, 10 μM values are reported for all entries that follow.
Please state the figure in ×10⁻⁶ cm/s; there is no need to write the unit.

CC(Oc1cc(-c2cnn(C3CCNCC3)c2)cnc1N)c1c(Cl)ccc(F)c1Cl (racemic) [PF2341066, crizotinib, reference compound]: 50.7
Cc1ccc(F)cc1CC(C)Nc1cc[nH]c(=O)c1-c1nc2cc3c(cc2[nH]1)CNC3=O (centres unmarked) [Compound 52]: 7.4
C[C@@H](Cc1c(F)c(F)cc(F)c1F)Nc1cc[nH]c(=O)c1-c1nc2cc3c(cc2[nH]1)C(=O)N(CCN(C)C)C3=O [Compound 2]: 3.6
CC(Cc1cc(F)ccc1F)Nc1cc[nH]c(=O)c1-c1nc2cc3c(cc2[nH]1)CNC3=O (centres unmarked) [Compound 53]: 8.24
CC(Cc1cc(F)ccc1F)Nc1cc[nH]c(=O)c1-c1nc2cc3c(cc2[nH]1)C(=O)N(CC(O)CO)C3=O (centres unmarked) [Compound 34]: 1.17

The compound CC(Cc1c(F)c(F)cc(F)c1F)Nc1cc[nH]c(=O)c1-c1nc2cc3c(cc2[nH]1)C(=O)N(C)C3 (centres unmarked) [Compound 42] showed Papp B→A at 2 h, 10 μM equal to 0.24

The compound C[C@@H](Cc1c(F)c(F)cc(F)c1F)Nc1cc[nH]c(=O)c1-c1nc2cc3c(cc2[nH]1)C(O)N(c1cccnc1)C3=O (some centres unmarked) [Compound 13] showed Papp B→A at 2 h, 10 μM equal to 1.9

---

- Measurement description: in vitro
- Experimental parameters: rat, microsomes, pH 7.4
Measurement name: half-life at 0.5 μM (min)
Please state the figure in min; there is no need to write the unit.

Study these solved cases before continuing.
COC1c2cc3nc(-c4c(N[C@@H](C)Cc5c(F)c(F)cc(F)c5F)cc[nH]c4=O)[nH]c3cc2C(=O)N1c1cccnc1 (stereo partly drawn) [Compound 14]: 103
C[C@@H](Cc1c(F)c(F)cc(F)c1F)Nc1cc[nH]c(=O)c1-c1nc2cc3c(cc2[nH]1)C(O)N(c1cccnc1)C3=O (stereo partly drawn) [Compound 13]: 37.8
C[C@@H](Cc1cc(F)cc(F)c1F)Nc1cc[nH]c(=O)c1-c1nc2cc3c(cc2[nH]1)CN(CCN(C)C)C3=O [Compound 31]: 8.7
CC(Cc1cc(F)ccc1F)Nc1cc[nH]c(=O)c1-c1nc2cc3c(cc2[nH]1)CN(C)C3=O (stereo not drawn) [Compound 33]: 7.13
Cc1ccc(F)cc1CC(C)Nc1cc[nH]c(=O)c1-c1nc2cc3c(cc2[nH]1)CNC3=O (stereo not drawn) [Compound 52]: 2.51
CC(Cc1cc(F)ccc1F)Nc1cc[nH]c(=O)c1-c1nc2cc3c(cc2[nH]1)C(=O)N(CCN(C)C)C3 (racemic) [Compound 18]: 20.6
CC(Cc1cc(F)ccc1F)Nc1cc[nH]c(=O)c1-c1nc2cc3c(cc2[nH]1)C(=O)N(CC(O)CO)C3=O (stereo not drawn) [Compound 34]: 33.6
CC(Cc1cc(F)ccc1F)Nc1cc[nH]c(=O)c1-c1nc2cc3c(cc2[nH]1)C(=O)N(CCN(C)C)C3=O (stereo not drawn) [Compound 17]: 25.6
C[C@@H](Cc1c(F)c(F)cc(F)c1F)Nc1cc[nH]c(=O)c1-c1nc2cc3c(cc2[nH]1)CN(CCN(C)C)C3=O [Compound 1]: 8.43

The compound CC(Cc1cc(F)ccc1F)Nc1cc[nH]c(=O)c1-c1nc2cc3c(cc2[nH]1)CNC3=O (stereo not drawn) [Compound 53] showed half-life at 0.5 μM equal to 8.68

---

- Measurement description: in vitro
- Experimental parameters: human, microsomes, pH 7.4, Human LM-P1 Half-life (min)
Measured half-life at 0.5 μM values are reported for all entries that follow.

Study these solved cases before continuing.
COC1c2cc3nc(-c4c(N[C@@H](C)Cc5c(F)c(F)cc(F)c5F)cc[nH]c4=O)[nH]c3cc2C(=O)N1c1cccnc1 (stereo partly drawn) [Compound 14]: > 2 h
C[C@@H](Cc1c(F)c(F)cc(F)c1F)Nc1cc[nH]c(=O)c1-c1nc2cc3c(cc2[nH]1)C(=O)N(c1cccnc1)C3=O [Compound 12]: > 2 h

The compound C[C@@H](Cc1cc(F)cc(F)c1F)Nc1cc[nH]c(=O)c1-c1nc2cc3c(cc2[nH]1)CN(CCN(C)C)C3=O [Compound 31] showed half-life at 0.5 μM equal to > 2 h

---

- Measurement description: Metabolic stability, Phase I microsome reactions
- Assay type: in vitro ADME, mouse
- Experimental parameters: mouse, liver microsomes, pH 7.4, Phase I only, 1.0 mg/ml microsomes, read-out: Mouse LM-P1 CL
Measured microsomal CLint at 0.5 μM values are reported for all entries that follow.

Study these solved cases before continuing.
C[C@@H](Cc1cc(F)ccc1F)Nc1cc[nH]c(=O)c1-c1nc2cc3c(cc2[nH]1)C(=O)N(C)C3=O: < 5.8 µL/min/mg
C[C@@H](Cc1c(F)c(F)cc(F)c1F)Nc1cc[nH]c(=O)c1-c1nc2cc3c(cc2[nH]1)C(=O)N(c1cccnc1)C3=O: < 5.8 µL/min/mg

The molecule COC1c2cc3nc(-c4c(N[C@@H](C)Cc5c(F)c(F)cc(F)c5F)cc[nH]c4=O)[nH]c3cc2C(=O)N1c1cccnc1 (stereo partly drawn) showed microsomal CLint at 0.5 μM equal to < 5.8 µL/min/mg
